assay: Tested for inhibition of substrate hydrolysis in the presence of porcine kidney esterase at a concentration of 1 uM
recorded endpoint: Ki (µM)
Numbers only; they are read as µM.

stdin: Fill in: Ki of `COC(=O)CCC(=O)N[C@@H](C)C(=O)N[C@@H](C)C(=O)N1CCC[C@H]1C(=O)N/C(=C(/OC(C)=O)C(=O)OC)C(C)C` is ___
stdout: 0.13

---

assay: Tested for inhibition of substrate hydrolysis in the presence of porcine kidney esterase at a concentration of 45 nM
recorded endpoint: pKi
Give only the number. pKi is defined as minus log10 of concentration in molar units.

stdin: Fill in: pKi of `COC(=O)/C(OC(C)=O)=C(\NC(=O)[C@@H]1CCCN1C(=O)[C@H](C)NC(=O)[C@H](C)NC(=O)c1ccc(C(=O)NS(=O)(=O)c2ccc(Cl)cc2)cc1)C(C)C` is ___
stdout: 7.89
